# PROTOCOL_SUMMARY: total protein half-life in vivo (active degradation + dilution); higher = more stable protein
# SETTINGS: wild type E. coli NCM3722; growth: C-lim chemostat; doubling time 3 h
For each record, write down the corresponding total protein half-life in vivo.
Provide only the numeric value, understood in h.

The sequence "MRNHQLGIYEKALAKDLSWPERLVLAKSCGFDFVEMSVDETDERLSRLDWSAAQRTSLVAAMIETGVGIPSMCLSAHRRFPFGSRDEAVRERAREIMSKAIRLARDLGIRTIQLAGYDVYYEDHDEGTRQRFAEGLAWAVEQAAASQVMLAVEIMDTAFMNSISKWKKWDEMLASPWFTVYPDVGNLSAWGNDVPAELKLGIDRIAAIHLKDTQPVTGQSPGQFRDVPFGEGCVDFVGIFKTLHKLNYRGSFLIEMWTEKAKEPVLEIIQARRWIEARMQEAGFIC" showed total protein half-life in vivo equal to 1.06

Sample "MSFSVQETLFSLLQHNAISGHENAVADVMLCEFRRQAKEVWRDRLGNVVARYGSDKPDALRLMIFAHMDEVGFMVRKIEPSGFLRFERVGGPAQVTMAGSIVTLTGDKGPVMGCIGIKSYHFAKGDERTQSPSVDKLWIDIGAKDKDDAIRMGIQVGTPVTLYNPPQLLANDLVCSKALDDRLGCTALLGVADAISTMELDIAVYLVASVQEEFNIRGIVPVLRRVKPDLAIGIDITPSCDTPDLHDYSEVRINQGVGITCLNYHGRGTLAGLITPPRLIRMLEQTALEHNIPVQREVAPGVITETGYIQVEQDGIPCASLSIPCRYTHSPAEVASLRDLTDCIRLLTALAGMSAAHFPVEPDSGTTQEAHPL" ; total protein half-life in vivo observed: 3.05

The sequence identified as MQFNIPTLLTLFRVILIPFFVLVFYLPVTWSPFAAALIFCVAAVTDWFDGFLARRWNQSTRFGAFLDPVADKVLVAIAMVLVTEHYHSWWVTLPAATMIAREIIISALREWMAELGKRSSVAVSWIGKVKTTAQMVALAWLLWRPNIWVEYAGIALFFVAAVLTLWSMLQYLSAARADLLDQ [P0ABF8] registered its total protein half-life in vivo at 3.1

---

# PROTOCOL_SUMMARY: total protein half-life in vivo (active degradation + dilution); higher = more stable protein
# SETTINGS: wild type E. coli NCM3722; growth: N-lim chemostat; doubling time 12 h
Consider the following sequences; for each one, report its total protein half-life in vivo.

Form: sequence = MWSEYSLEVVDAVARNGSFSAAAQELHRVPSAVSYTVRQLEEWLAVPLFERRHRDVELTAAGAWFLKEGRSVVKKMQITRQQCQQIANGWRGQLAIAVDNIVRPERTRQMIVDFYRHFDDVELLVFQEVFNGVWDALSDGRVELAIGATRAIPVGGRYAFRDMGMLSWSCVVASHHPLALMDGPFSDDTLRNWPSLVREDTSRTLPKRITWLLDNQKRVVVPDWESSATCISAGLCIGMVPTHFAKPWLNEGKWVALELENPFPDSACCLTWQQNDMSPALTWLLEYLGDSETLNKEWLREPEETPATGD [P0ACR2] ; total protein half-life in vivo = 8.76 h

Item: "MSKSLQKPTILNVETVARSRLFTVESVDLEFSNGVRRVYERMRPTNREAVMIVPIVDDHLILIREYAVGTESYELGFSKGLIDPGESVYEAANRELKEEVGFGANDLTFLKKLSMAPSYFSSKMNIVVAQDLYPESLEGDEPEPLPQVRWPLAHMMDLLEDPDFNEARNVSALFLVREWLKGQGRV" | total protein half-life in vivo: 5.39 h

The sequence identified as "MNLDDKSLFLDAMEDVQPLKRATDVHWHPTRNQRAPQRIDTLQLDNFLTTGFLDIIPLSQPLEFRREGLQHGVLDKLRSGKYPQQASLNLLRQPVEECRKMVFSFIQQALADGLRNVLIIHGKGRDDKSHANIVRSYVARWLTEFDDVQAYCTALPHHGGSGACYVALRKTAQAKQENWERHAKRSR" registered its total protein half-life in vivo at 1.33 h

---

# PROTOCOL_SUMMARY: total protein half-life in vivo (active degradation + dilution); higher = more stable protein
# SETTINGS: E. coli NCM3722 delta-clpP delta-lon delta-hslV; growth: N-lim chemostat; doubling time 6 h
RECORDED_METRIC: total protein half-life in vivo (h)
Expressed in h, but write only the number.

Value of measured total protein half-life in vivo for the entry "MQKDALNNVHITDEQVLMTPEQLKAAFPLSLQQEAQIADSRKSISDIIAGRDPRLLVVCGPCSIHDPETALEYARRFKALAAEVSDSLYLVMRVYFEKPRTTVGWKGLINDPHMDGSFDVEAGLQIARKLLLELVNMGLPLATEALDPNSPQYLGDLFSWSAIGARTTESQTHREMASGLSMPVGFKNGTDGSLATAINAMRAAAQPHRFVGINQAGQVALLQTQGNPDGHVILRGGKAPNYSPADVAQCEKEMEQAGLRPSLMVDCSHGNSNKDYRRQPAVAESVVAQIKDGNRSIIGLMIESNIHEGNQSSEQPRSEMKYGVSVTDACISWEMTDALLREIHQDLNGQLTARVA" : 3.13

---

Exercise: state measured total protein half-life in vivo for each of the sequences provided.
# PROTOCOL_SUMMARY: total protein half-life in vivo (active degradation + dilution); higher = more stable protein
# SETTINGS: wild type E. coli NCM3722; growth: C-lim chemostat; doubling time 6 h
Please state the figure in h; there is no need to write the unit.

Record MNKSQLIDKIAAGADISKAAAGRALDAIIASVTESLKEGDDVALVGFGTFAVKERAARTGRNPQTGKEITIAAAKVPSFRAGKALKDAVN [P0ACF4] . Reported total protein half-life in vivo: 5.1

The reported value for "MGAELVKWVKSHKIDAHIITFVAKMPYIDSIKLLEAGAKGCVWKTSHPAKLNRAIDSISNGYTYFDSVHMDCEKISSRYSSDNQLTNRESEILQLIADGKTNKEIANFLQLSRKTVETHRLNIMKKLDVHSGIELIKTALRMGVCTI" in terms of total protein half-life in vivo is 4.55

Note to self: total protein half-life in vivo recorded for MNEQSQAKSPEALRAMVAGTLANFQHPTLKHNLTTLKALHHVAWMDDTLHVELVMPFVWHSAFEELKEQCSAELLRITGAKAIDWKLSHNIATLKRVKNQPGINGVKNIIAVSSGKGGVGKSSTAVNLALALAAEGAKVGILDADIYGPSIPTMLGAENQRPTSPDGTHMAPIMSHGLATNSIGYLVTDDNAMVWRGPMASKALMQMLQETLWPDLDYLVLDMPPGTGDIQLTLAQNIPVTGAVVVTTPQDIALIDAKKGIVMFEKVEVPVLGIVENMSVHICSNCGHHEPIFGTGGAEKLAEKYHTQLLGQMPLHISLREDLDKGTPTVISRPESEFTAIYRQLADRVAAQLYWQGEVIPGEISFRAV [P0AF08] was 5.22

Looking up "MSDISKASLPKAIFLMGPTASGKTALAIELRKILPVELISVDSALIYKGMDIGTAKPNAEELLAAPHRLLDIRDPSQAYSAADFRRDALAEMADITAAGRIPLLVGGTMLYFKALLEGLSPLPSADPEVRARIEQQAAEQGWESLHRQLQEVDPVAAARIHPNDPQRLSRALEVFFISGKTLTELTQTSGDALPYQVHQFAIAPASRELLHQRIEQRFHQMLASGFEAEVRALFARGDLHTDLPSIRCVGYRQMWSYLEGEISYDEMVYRGVCATRQLAKRQITWLRGWEGVHWLDSEKPEQARDEVLQVVGAIAG" , I found its total protein half-life in vivo recorded as 5.47

sequence "MTMYATLEEAIDAAREEFLADNPGIDAEDANVQQFNAQKYVLQDGDIMWQVEFFADEGEEGECLPMLSGEAAQSVFDGDYDEIEIRQEWQEENTLHEWDEGEFQLEPPLDTEEGRAAADEWDER" , total protein half-life in vivo observed: 3.94

Recorded result, MKAARQQAIVDLLLNHTSLTTEALSEQLKVSKETIRRDLNELQTQGKILRNHGRAKYIHRQNQDSGDPFHIRLKSHYAHKADIAREALAWIEEGMVIALDASSTCWYLARQLPDINIQVFTNSHPICHELGKRERIQLISSGGTLERKYGCYVNPSLISQLKSLEIDLFIFSCEGIDSSGALWDSNAINADYKSMLLKRAAQSLLLIDKSKFNRSGEARIGHLDEVTHIISDERQVATSLVTA [P0ACK8] , total protein half-life in vivo: 1.09

Measured total protein half-life in vivo of MKRKVLLIPLIIFLAIAAALLWQLARNAEGDDPTNLESALIGKPVPKFRLESLDNPGQFYQADVLTQGKPVLLNVWATWCPTCRAEHQYLNQLSAQGIRVVGMNYKDDRQKAISWLKELGNPYALSLFDGDGMLGLDLGVYGAPETFLIDGNGIIRYRHAGDLNPRVWEEEIKPLWEKYSKEAAQ [P0AA86] : 6.11
